molecular target: BTK (Homo sapiens, UniProt Q06187); construct: endogenous in cells; host or cells: TMD-8 cells; assay: BTK degradation in TMD-8 cells, HTRF assay after 6 h treatment; format: cell-based; details: TMD8, maximum percentage of inhibition (degradation)
Sequence (Q06187 whole entry): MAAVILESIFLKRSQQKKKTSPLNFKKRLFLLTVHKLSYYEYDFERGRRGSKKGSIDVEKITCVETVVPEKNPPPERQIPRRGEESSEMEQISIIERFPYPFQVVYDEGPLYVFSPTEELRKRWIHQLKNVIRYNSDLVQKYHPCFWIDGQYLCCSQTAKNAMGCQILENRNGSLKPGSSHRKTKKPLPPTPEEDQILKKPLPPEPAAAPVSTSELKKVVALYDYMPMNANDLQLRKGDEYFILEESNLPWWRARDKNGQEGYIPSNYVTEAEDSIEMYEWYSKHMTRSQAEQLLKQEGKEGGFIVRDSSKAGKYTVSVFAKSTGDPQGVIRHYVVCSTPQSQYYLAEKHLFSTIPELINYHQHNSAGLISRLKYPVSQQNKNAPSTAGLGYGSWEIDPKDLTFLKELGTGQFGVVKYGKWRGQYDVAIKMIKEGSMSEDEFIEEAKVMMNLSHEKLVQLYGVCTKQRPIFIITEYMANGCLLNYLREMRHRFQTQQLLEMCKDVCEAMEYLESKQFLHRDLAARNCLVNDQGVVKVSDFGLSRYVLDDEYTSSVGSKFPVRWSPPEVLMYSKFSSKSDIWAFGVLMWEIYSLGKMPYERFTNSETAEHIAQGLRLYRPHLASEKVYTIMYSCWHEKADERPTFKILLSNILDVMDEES

compound: COc1cc(N2CCC(CCN3CCC(c4ccc(-c5cnc6[nH]nc(-c7ccc(CNC(=O)c8nc(C(C)(C)C)no8)c(C)c7)c6c5)cc4)CC3)CC2)ccc1N1CCC(=O)NC1=O
system: BTK (Homo sapiens, UniProt Q06187)
Dmax [%]: 97.1

compound: Cc1cc(-c2n[nH]c3ncc(-c4ccc(N5CCN(CC6CCN(c7ccc(N8CCC(=O)NC8=O)cc7)CC6)CC5)cc4)cc23)ccc1CNC(=O)c1noc(C(C)(C)C)n1
system: BTK (Homo sapiens, UniProt Q06187)
Dmax [%]: 97.6

compound: Cc1cc(-c2n[nH]c3ncc(-c4ccc(N5CCN(CC6CCN(c7ccc(N8CCC(=O)NC8=O)cc7)CC6)CC5)cc4)cc23)ccc1CNC(=O)c1cn(C(C)(C)C)nn1
system: BTK (Homo sapiens, UniProt Q06187)
Dmax [%]: 97.4

compound: Cc1cc(-c2n[nH]c3ncc(-c4ccc(C5CCN(CCCOc6ccc(C7CCC(=O)NC7=O)c(C)c6)CC5)cc4)cc23)ccc1CNC(=O)c1nc(C(C)(C)C)no1 (stereo not drawn)
system: BTK (Homo sapiens, UniProt Q06187)
Dmax [%]: 95.3

compound: Cc1cc(-c2n[nH]c3ncc(-c4ccc(N5CCN(CC6CCN(c7ccc(N8CCC(=O)NC8=O)cc7)CC6)CC5)cc4)cc23)ccc1CNC(=O)c1nc(C(C)(C)C)no1
system: BTK (Homo sapiens, UniProt Q06187)
Dmax [%]: 96.4

compound: Cc1cc(-c2n[nH]c3ncc(-c4ccc(C5CCN(CCc6ccc(C7CCC(=O)NC7=O)cc6)CC5)cc4)cc23)ccc1CNC(=O)c1noc(C(C)(C)C)n1 (stereo not drawn)
system: BTK (Homo sapiens, UniProt Q06187)
Dmax [%]: 97.1

compound: Cc1cc(-c2n[nH]c3ncc(-c4ccc(N5CCN(CCc6ccc(C7CCC(=O)NC7=O)c(F)c6)CC5)cc4)cc23)ccc1[C@@H](C)NC(=O)c1nc(C(C)(C)C)no1 (stereo partly drawn)
system: BTK (Homo sapiens, UniProt Q06187)
Dmax [%]: 95.6

compound: Cc1cc(-c2n[nH]c3ncc(-c4ccc(C5CCN(CCc6ccc(C7CCC(=O)NC7=O)cc6)CC5)cc4)cc23)ccc1CNC(=O)c1nc(C(C)(C)C)no1 (stereo not drawn)
system: BTK (Homo sapiens, UniProt Q06187)
Dmax [%]: 100

compound: Cc1cc(-c2n[nH]c3ncc(-c4ccc(C5CCN(CCc6ccc(OC7CCC(=O)NC7=O)cc6)CC5)cc4)cc23)ccc1CNC(=O)c1nc(C(C)(C)C)no1 (stereo not drawn)
system: BTK (Homo sapiens, UniProt Q06187)
Dmax [%]: 95.4

compound: Cc1cc(-c2n[nH]c3ncc(-c4ccc(N5CCN(CCc6ccc(C7CCC(=O)NC7=O)cc6)CC5)cc4)cc23)ccc1[C@@H](C)NC(=O)c1nc(C(C)(C)C)no1 (stereo partly drawn)
system: BTK (Homo sapiens, UniProt Q06187)
Dmax [%]: 99.4

compound: Cc1cc(-c2n[nH]c3ncc(-c4ccc(N5CCN(CCc6ccc(C7CCC(=O)NC7=O)cc6)CC5)cc4)cc23)ccc1[C@@H](C)NC(=O)c1noc(C(C)(C)C)n1 (stereo partly drawn)
system: BTK (Homo sapiens, UniProt Q06187)
Dmax [%]: 93

compound: CC(C)(C)c1noc(C(=O)NCc2ccc(-c3n[nH]c4ncc(-c5ccc(C6CCN(CCC7CCN(c8ccc(N9CCC(=O)NC9=O)c(F)c8)CC7)CC6)cc5)cc34)cc2F)n1
system: BTK (Homo sapiens, UniProt Q06187)
Dmax [%]: 96.4

compound: Cc1cc(-c2n[nH]c3ncc(-c4ccc(C5CCN(CCCOc6ccc(NC7CCC(=O)NC7=O)cc6)CC5)cc4)cc23)ccc1CNC(=O)c1noc(C(C)(C)C)n1 (stereo not drawn)
system: BTK (Homo sapiens, UniProt Q06187)
Dmax [%]: 96.2

compound: CC(C)(C)c1noc(C(=O)NCc2ccc(-c3n[nH]c4ncc(-c5ccc(C6CCN(CCC7CCN(c8ccc(N9CCC(=O)NC9=O)cc8)CC7)CC6)cc5)cc34)cc2F)n1
system: BTK (Homo sapiens, UniProt Q06187)
Dmax [%]: 95.7

compound: Cc1cc(-c2n[nH]c3ncc(-c4ccc(C5CCN(CCc6ccc(C7CCC(=O)NC7=O)c7c6CCCC7)CC5)cc4)cc23)ccc1CNC(=O)c1nc(C(C)(C)C)no1 (stereo not drawn)
system: BTK (Homo sapiens, UniProt Q06187)
Dmax [%]: 94.3

compound: CC(C)(C)c1noc(C(=O)NCc2ccc(-c3n[nH]c4ncc(-c5ccc(C6CCN(CCc7ccc(N8CCC(=O)NC8=O)cc7)CC6)cc5)cc34)cc2F)n1
system: BTK (Homo sapiens, UniProt Q06187)
Dmax [%]: 93

compound: Cc1cc(-c2n[nH]c3ncc(-c4ccc(C5CCN(CCCOc6ccc(NC7CCC(=O)NC7=O)c(C)c6)CC5)cc4)cc23)ccc1CNC(=O)c1nc(C(C)(C)C)no1 (stereo not drawn)
system: BTK (Homo sapiens, UniProt Q06187)
Dmax [%]: 97.3

compound: Cc1cc(-c2n[nH]c3ncc(-c4ccc(C5CCN(CC6CCN(c7ccc(N8CCC(=O)NC8=O)cc7)CC6)CC5)cc4)cc23)ccc1CNC(=O)c1noc(C(C)(C)C)n1
system: BTK (Homo sapiens, UniProt Q06187)
Dmax [%]: 96.7

compound: Cc1cc(-c2n[nH]c3ncc(-c4ccc(C5CCN(CCC6CCN(c7ccc(N8CCC(=O)NC8=O)cc7)CC6)CC5)cc4)cc23)ccc1CNC(=O)c1nc(C(C)(C)C)no1
system: BTK (Homo sapiens, UniProt Q06187)
Dmax [%]: 97

compound: Cc1cc(-c2n[nH]c3ncc(-c4ccc(C5CCN(CCc6ccc(N7CCC(=O)NC7=O)cc6)CC5)cc4)cc23)ccc1CNC(=O)c1noc(C(C)(C)C)n1
system: BTK (Homo sapiens, UniProt Q06187)
Dmax [%]: 97

compound: Cc1cc(-c2n[nH]c3ncc(-c4ccc(C5CCN(CC6CCN(c7ccc(N8CCC(=O)NC8=O)cc7)CC6)CC5)cc4)cc23)ccc1CNC(=O)c1nc(C(C)(C)C)no1
system: BTK (Homo sapiens, UniProt Q06187)
Dmax [%]: 96.7
